B1: Pre-mRNA-processing factor 40 homolog B, residues 274 to 332; numbered along this chain, Q6NWY9 (parent)
chain: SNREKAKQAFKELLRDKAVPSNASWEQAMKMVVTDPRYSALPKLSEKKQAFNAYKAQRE

Variants of: B1
Measurement Protocol: abundance fitness (aPCA) (normalised: wild type 0, dead -1); higher = more abundant; growth selection in yeast, the domain comes from the species named
Condition Summary: Homo sapiens
If the reported abundance fitness equals or exceeds -0.6, assign YES. If not, assign NO.

1. A50Y :: NO
2. A28Q :: YES
3. N22M :: NO
4. R15H :: YES
5. E12H :: YES
6. D16R :: NO
